// Inhibition (%) lookup, one value per entry
test system: herpes simplex type 1; experiment: Plaque reduction assay for herpes simplex type 1 on GMK monolayers; type: cell-based; conditions: 20 μM test compound
Write it as a number; the unit % goes unstated.

{"columns": ["molecule", "unit.name", "Inhibition (%)"],
 "data": [
  ["COc1ccc(OP(=O)(O)C(=O)O)cc1", "%", 87],
  ["O=C(O)P(=O)(O)Oc1ccc(Cl)cc1", "%", 98],
  ["Cc1ccc(OP(=O)(O)C(=O)O)cc1 [VIS 059, p-tolyl disodium oxycarbonylphosphonate]", "%", 95]
]}

Here is another molecule to look at.
Q) Retrieve Inhibition (%) on herpes simplex type 1; query O=C(Oc1ccccc1)P(=O)([O-])Oc1ccc(Cl)cc1.[Na+]
A) 69
